- Test system: 6 Hz (32 mA) psychomotor seizures
- ASSAY INFO: 6 Hz psychomotor seizure test, 32 mA (incl. TPE determination)
- Format: in vivo, mice
- EXPERIMENTAL SETUP: Mus musculus, sc, at TPE; read-out: ED50 (95% CI) 32 mA
- Description: Test compounds were administered using an optimal fluid volume to body fluid ratio. Test compounds were administered to mice in a volume of 0.01 mL/g of body weight (White H. S., et al., General Principles: Experimental selection, quantification, and evaluation of antiepileptic drugs, in Antiepileptic Drugs, Fourth Edition, […], and B. S. Meldrum, Editors. 1995, Raven Press, Ltd.: New York, pp. 99-110). […] TPE was determined using the 6 Hz (32 mA) assay. […]

# COMPOUND, UNIT TAG, ED50
rows = [
    ("FC(F)(F)Cc1nnc2c(Cl)c(N3CCC(F)(c4ccccc4)CC3)ccn12", "mg/kg", 4.77),
    ("FC(F)(F)c1c(N2CCC(c3ccccc3)CC2)ccn2c(CC3CC3)nnc12", "mg/kg", 3.83),
    ("N[C@@]1(C(=O)O)CS(=O)(=O)[C@H]2[C@H](C(=O)O)[C@H]21 [LY-404039, reference compound]", "mg/kg", 10.2),
    ("CCCCn1ccc(N2CCC(c3ccc(F)cc3F)CC2)c(Cl)c1=O", "mg/kg", 7.7),
    ("Fc1ccc(N2CCN(Cc3ccn4c(CC5CC5)nnc4c3C(F)(F)F)CC2)c(F)c1", "mg/kg", 2.8),
]

###

- ASSAY INFO: Minimal motor impairment (rotarod)
- Format: in vivo, mice
- EXPERIMENTAL SETUP: mouse, in vivo, sc, rotarod
// TD50 at 0.5 h lookup, one value per entry
ATTRIBUTE MEASURED: TD50 at 0.5 h

# COMPOUND, ATTRIBUTE MEASURED, OBSERVED VALUE
measured = [
    ("N[C@@]1(C(=O)O)CS(=O)(=O)[C@H]2[C@H](C(=O)O)[C@H]21 [LY-404039, reference compound]", "TD50 at 0.5 h", "> 40 mg/kg"),
    ("CCCCn1ccc(N2CCC(c3ccccc3)CC2)c(Cl)c1=O [Co. No. 2-a]", "TD50 at 0.5 h", "> 40 mg/kg"),
]

###

- ASSAY INFO: Plasma and brain levels (pK/pD analysis)
- Format: in vivo, mice
- EXPERIMENTAL SETUP: mouse, plasma, subcutaneous, 10 mg/kg, 10 mg/kg s.c., 2 h; 32 mA group; read-out: Co. No. 25-a mean plasma levels
ATTRIBUTE MEASURED: concentration at 2 h (µg/mL)

# ITEM SMILES, UNIT TAG, OBSERVED VALUE
data = [
    ("CCCCn1ccc(N2CCC(c3ccc(F)cc3F)CC2)c(Cl)c1=O", "µg/mL", 0.256),
]

###

- ASSAY INFO: Plasma and brain levels (pK/pD analysis)
- Type: in vivo, mice
- EXPERIMENTAL SETUP: mouse, plasma, subcutaneous, 1 mg/kg, 1 mg/kg s.c., 0.25 h; 32 mA group; read-out: Co. No. 25-a mean plasma levels
ATTRIBUTE MEASURED: concentration at 0.25 h (µg/mL)

# MOLECULE, OBSERVED VALUE
measured = [
    ("CCCCn1ccc(N2CCC(c3ccc(F)cc3F)CC2)c(Cl)c1=O [Co. No. 25-a]", 0.466),
]
